- assay.text: Capsule perfume leakage in liquid fabric enhancer (LFE), headspace SPME GC/MS
- Format: physicochemical
- condition.parameters: PRM of Perfume 1 out of Comparative Example 4-1 capsules (polyacrylate shell); LFE Composition 1; 0.25 wt % perfume
Readings of Leakage (as %) after 1 week at 35° C. for the listed compounds

compound	Leakage (as %) after 1 week at 35° C.
CCC(C)(O)CCCC(C)C (stereo not drawn) [Tetrahydro linalool]	9
CC(=O)OC1CC2CC1C1CC=CC21 (stereo not drawn) [Verdyl acetate]	4
CC(=O)OC1CCCCC1C(C)(C)C (stereo not drawn) [(2-tert-butylcyclohexyl) acetate]	4
CC(=O)O[C@@H]1C[C@H]2CC[C@]1(C)C2(C)C (racemic) [iso-Bornyl acetate]	4
CC(=O)OC1CCC(C(C)(C)C)CC1 (stereo not drawn) [(4-tert-butylcyclohexyl) acetate]	3
CCC(C)CCCC(C)(C)O (stereo not drawn) [Tetrahydro myrcenol]	10
CC1=CC(C)C(C=O)CC1 (stereo not drawn)	31
CC12CCC(CC1)C(C)(C)O2 [Eucalyptol]	5
CCOC(=O)C(C)CC (stereo not drawn) [Ethyl 2-methyl butyrate]	61
